Please respond with reported IC50 for every item in the list.
biological target: recombinant human Wee1A kinase (Homo sapiens, UniProt P30291); construct: full length Wee1A kinase was expressed by baculovirus in insect cells; assay: LanthaScreen Europium (Eu) Kinase Binding Assay, Wee1A kinase (TR-FRET tracer displacement); conditions: 30 nM tracer 178, 5 nM Wee1A kinase, 60 minutes at room temperature
Sequence (P30291 whole entry): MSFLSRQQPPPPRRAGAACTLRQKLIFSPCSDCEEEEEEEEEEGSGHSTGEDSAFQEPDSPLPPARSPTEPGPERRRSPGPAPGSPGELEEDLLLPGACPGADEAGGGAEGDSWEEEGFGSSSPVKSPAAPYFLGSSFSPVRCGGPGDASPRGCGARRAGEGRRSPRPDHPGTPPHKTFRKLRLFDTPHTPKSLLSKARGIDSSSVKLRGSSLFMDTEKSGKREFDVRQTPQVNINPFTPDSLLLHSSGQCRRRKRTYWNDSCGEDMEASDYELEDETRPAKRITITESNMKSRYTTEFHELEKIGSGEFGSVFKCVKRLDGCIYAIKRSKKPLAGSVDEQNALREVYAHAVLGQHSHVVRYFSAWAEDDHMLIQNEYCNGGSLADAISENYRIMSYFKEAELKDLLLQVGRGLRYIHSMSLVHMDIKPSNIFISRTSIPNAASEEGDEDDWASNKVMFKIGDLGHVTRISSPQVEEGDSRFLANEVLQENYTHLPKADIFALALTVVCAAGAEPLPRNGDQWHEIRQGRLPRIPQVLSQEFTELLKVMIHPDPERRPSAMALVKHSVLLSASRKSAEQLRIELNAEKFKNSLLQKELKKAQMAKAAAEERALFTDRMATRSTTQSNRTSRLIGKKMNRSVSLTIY

Entry COc1cc(Nc2ncc(C(=O)Nc3c(Cl)cccc3Br)c(OC)n2)ccc1C1CCN(C)CC1 [Compound 216] — recorded IC50 = ≤ 10 nM

Data point: COc1nc(Nc2cnn([C@@H]3CCCNCC3)c2)ncc1C(=O)Nc1c(Cl)cccc1Cl (single isomer, unassigned) [Compound 186] ; IC50 = ≤ 10 nM

Looking up COc1nc(Nc2ccc3c(c2)CN(C)CC3)ncc1C(=O)Nc1c(Cl)cccc1Cl [Compound 116] , I see its IC50 listed as ≤ 10 nM

IC50 in this record for COc1nc(Nc2ccc(C3CCN(C)CC3)c(C#N)c2)ncc1C(=O)Nc1c(Cl)cccc1Cl [Compound 156] : ≤ 10 nM

// IC50 value for COc1nc(Nc2ccc([C@H]3CCN(C)C3)c(C)c2)ncc1C(=O)Nc1c(Cl)cccc1Br [Compound 192] : ≤ 10 nM

Lab book: IC50 of COc1nc(Nc2ccc(OC3CCNCC3)c(C)c2)ncc1C(=O)Nc1c(Cl)cccc1Cl [Compound 180] noted as ≤ 10 nM

The compound identified as COc1nc(Nc2cnn(C[C@@H]3CCCN3)c2)ncc1C(=O)Nc1c(Cl)cccc1Cl [Compound 160] registered its IC50 at 10 to 100 nM

Lab note: measured IC50 of COc1nc(Nc2ccc([C@H]3CCCN(C)CC3)c(C)c2)ncc1C(=O)Nc1c(Cl)cccc1Br [Compound 208] was ≤ 10 nM

Lookup result for COc1nc(Nc2ccc([C@H]3CCCNC3)c(C)c2)ncc1C(=O)Nc1c(Cl)cccc1Br [Compound 198] ; measured IC50: ≤ 10 nM

// CCOc1nc(Nc2cnn([C@H](C)CNC)c2)ncc1C(=O)Nc1c(Cl)cccc1Br [Compound 203] : IC50 value = ≤ 10 nM

response.value for CCOc1nc(Nc2ccc(OC3CCNCC3)c(C)c2)ncc1C(=O)Nc1c(Cl)cccc1Br [Compound 221] (field: IC50) = ≤ 10 nM

So for COc1nc(Nc2ccc(OCCN(C)C)c(C)c2)ncc1C(=O)Nc1c(Cl)cccc1Cl [Compound 143] , the logged IC50 turned out to be ≤ 10 nM

Notebook: COc1nc(Nc2ccc(N3CCCN(C)CC3)cc2)ncc1C(=O)Nc1c(Cl)cccc1Br [Compound 206] , IC50 read as ≤ 10 nM

// IC50 value for COc1nc(Nc2ccc(OC3CCN(C)CC3)c(C)c2)ncc1C(=O)Nc1c(Cl)cccc1Br [Compound 220] : ≤ 10 nM

Noted for COc1nc(Nc2cnn(C3CCN(C)CC3)c2)ncc1C(=O)Nc1c(Br)cccc1Br [Compound 212] : its IC50 reads ≤ 10 nM

Reported IC50 for C#Cc1cccc(Br)c1NC(=O)c1cnc(Nc2ccc(C3CCNCC3)c(C)c2)nc1OC [Compound 184] was ≤ 10 nM

Recorded result, COc1nc(Nc2ccc(OCCCN(C)C)c(C)c2)ncc1C(=O)Nc1c(Cl)cccc1Cl [Compound 147] , IC50: ≤ 10 nM

Lookup result for COc1nc(Nc2ccc(N3CCNCCC3=O)c(C)c2)ncc1C(=O)Nc1c(Cl)cccc1Cl [Compound 167] ; measured IC50: ≤ 10 nM

Looking up COc1nc(Nc2ccc(O[C@@H]3CCN(C)C3)c(C)c2)ncc1C(=O)Nc1c(Cl)cccc1Br [Compound 211] , I see its IC50 listed as ≤ 10 nM

// sample COc1nc(Nc2cnn(C3CCN(C)CC3)c2)ncc1C(=O)Nc1c(Cl)cccc1Cl [Compound 163] , its IC50 was ≤ 10 nM

Summary for this compound, COc1cccc(Cl)c1NC(=O)c1cnc(Nc2ccc(C3CCN(C)CC3)c(C)c2)nc1OC [Compound 130] : IC50 is ≤ 10 nM

The compound listed as COc1nc(Nc2ccc(OCCCN3CCOCC3)c(C)c2)ncc1C(=O)Nc1c(Cl)ccc(O)c1C [Compound 150] shows IC50 equal to ≤ 10 nM

So, COc1nc(Nc2ccc(C3CCN(C)CC3)c(C)c2)ncc1C(=O)Nc1c(Cl)cccc1C#N [Compound 137] ? Its IC50 was 10 to 100 nM

Reported IC50 of COc1nc(Nc2cnn(C[C@H]3CCCN3)c2)ncc1C(=O)Nc1c(Cl)cccc1Cl [Compound 159] : 10 to 100 nM

compound COc1nc(Nc2cnn(C[C@H]3CCNC3)c2)ncc1C(=O)Nc1c(Cl)cccc1Cl [Compound 165] , IC50 observed: 10 to 100 nM

# IC50 of COc1nc(Nc2ccc(C3CCN(C)CC3)c(C)c2)ncc1C(=O)Nc1c(C)cccc1C(F)(F)F [Compound 120] = ≤ 10 nM

Short answer for COc1nc(Nc2ccc(C3CCN(C)CC3)c(C)c2)ncc1C(=O)Nc1cc(N)ccc1C [Compound 171] : IC50 was 10 to 100 nM

Record COc1nc(Nc2ccc(C3CCN(C)CC3)c(C)c2)ncc1C(=O)Nc1c(F)ccc(F)c1Cl [Compound 128] , field IC50: ≤ 10 nM

For record COc1nc(Nc2ccc(C3CCN(C)CC3)nc2)ncc1C(=O)Nc1c(Cl)cccc1Cl [Compound 183] the listed IC50 is 10 to 100 nM

Quick note, IC50 for COc1nc(Nc2ccc(C3CCN(C)CC3)c(C)c2)ncc1C(=O)Nc1ccccc1Br [Compound 107] landed at ≤ 10 nM

Record summary for COc1nc(Nc2ccc(O[C@H]3CCNC3)c(C)c2)ncc1C(=O)Nc1c(Cl)cccc1Cl [Compound 177] : reported IC50 = ≤ 10 nM
